Kindly state normalized growth for each of the entries shown.
Assay: chemical genetic growth profiling, strain panel (AID 1159580);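 also: tested at 20 µM; growth read once vehicle control cultures reached saturation at 30 °C; 1 = growth at the plate median or of vehicle wells; lower values mean less growth of the strain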
Conditions: S. cerevisiae deletion strains, growth OD, locus YPL241C, strain CIN2, hits give low values
Hit rate of the full screen: of about 5,500 compounds, about 2,000 (36%) were called active. Roughly 18% stayed inconclusive and do not appear here. The list shows a part of the results. Where a SMILES comes first, the peptide text is derived from it.
Give bare numbers.

// solved cases for normalized growth follow
INSERT INTO measurements (molecule, assay_result) VALUES
  ('Cc1nn(Cc2n[nH]c(=S)o2)c(C)c1Br', 1.02),
  ('CC1CCC2(OC1)OC1CC3C4CCC5C[C@@H](O)CCC5(C)C4=CCC3(C)C1[C@@H]2C (some centres undefined)', 0.989),
  ('NCCCCC(N)C(=O)NC(Cc1ccc(O)cc1)C(=O)NC(CCCCN)C(=O)O (stereo not drawn) (H-Lys-Tyr-Lys-OH; configuration not given here)', 1);

# evaluate next
Prompt line: Given the molecule C[C@]12C=CC(=O)C=C1CCC1C3C[C@@H](O)[C@](O)(C(=O)CO)[C@@]3(C)C[C@H](O)[C@@]12F (some centres undefined) , what is its reported normalized growth?
Response line: 1.01

* * *

Exercise: state measured normalized growth for each of the compounds provided.
Assay: chemical genetic growth profiling, strain panel (AID 1159580)
Conditions: S. cerevisiae deletion strains, growth OD, locus YOR136W, strain idh2, hits give low values
Hit rate of the full screen: of about 5,500 compounds, about 2,000 (36%) were called active. Not shown: some 18% with an inconclusive outcome. This is one part of the list.
Numbers only.

# annotated cases, reported normalized growth shown
INSERT INTO results (compound, assay_result) VALUES
  ('COc1cc(OC)c(OC)cc1C=O', 0.981),
  ('CNCCCN1c2ccccc2CCc2ccccc21', 0.999),
  ('CC(=O)O[C@H]1C[C@@H](OC(C)=O)C(C)(C)C2CC(=O)[C@]3(C)C(CC[C@@]4(C)[C@H](c5ccoc5)OC(=O)[C@H]5O[C@]543)[C@]21C (some centres not stated)', 1.01),
  ('CC(=O)N=c1sc(S(N)(=O)=O)nn1C', 0.997),
  ('COc1cc2c(cc1/C=C/C(=O)c1cc(OC)c(OC)cc1OC)OCO2', 1.02),
  ('COc1cc(OC)c2c3c1C(=O)c1c(OC)cc(C)c4c(OC)cc(c-3c14)C(C)(C)C2=O', 0.987),
  ('CC(CN(C)C)CN1c2ccccc2Sc2ccccc21 (configuration not stated)', 0.987),
  ('CCC(=O)c1ccc2c(c1)N(CC(C)N(C)C)c1ccccc1S2 (configuration not stated)', 1);

Batch of 7 compounds: report normalized growth for each.
1. CC(CN(C)C)CN1c2ccccc2CCc2ccccc21 (configuration not stated)
2. CCCC(C(=O)OCCN(CC)CC)(c1ccccc1)c1ccccc1
3. CCN(CC)CCOC(=O)C(c1ccccc1)c1ccccc1
4. Nc1ccn(C2O[C@H](CO)[C@@H](O)[C@H]2O)c(=O)n1 (some centres not stated)
5. N[C@H](Cc1ccccc1)C(=O)O
6. COc1cc2c(cc1-c1cc3cc4ccoc4cc3oc1=O)OCO2
7. Cc1cc(=O)oc2c(O)c(O)ccc12

Response line:
1: 1.02; 2: 0.993; 3: 0.993; 4: 1.01; 5: 1; 6: 0.987; 7: 1.01

Answer for every listed entry: what is its normalized growth? The entries follow.
1. c1ccc2c(c1)CN1CCCC1=N2
2. O=C(O)Cc1cc(I)c(Oc2cc(I)c(O)c(I)c2)c(I)c1

Response line:
1. 0.976
2. 0.997

* * *

Assay: chemical genetic growth profiling, strain panel (AID 1159580)
Conditions: S. cerevisiae deletion strains, growth OD, locus YLR039C, strain RIC1, hits give low values
The whole screen tested about 5,500 compounds, of which about 2,000 (36%) were called active. Not shown: some 18% with an inconclusive outcome. The list shows a part of the results.
Measurement kind: normalized growth
Answers are plain numbers.

INSERT INTO results (compound, assay_result) VALUES
  ('CN(C)CCC(c1ccc(Br)cc1)c1ccccn1 (stereo not drawn)', 0.999),
  ('O=C(NCc1nc(-c2ccc(C(F)(F)F)cc2)no1)Nc1ccc(F)cc1F', 0.981),
  ('Cn1nccc1NS(=O)(=O)c1cccc(Cl)c1', 0.98),
  ('COC(=O)c1c(C)cc(OC(=O)c2c(C)c(Cl)c(O)c(C=O)c2O)c(C)c1O', 1);

Please state, for each entry, its recorded normalized growth.
1. O=C(CSc1nnc(NC(=O)c2cccc([N+](=O)[O-])c2)s1)Nc1ccc2c(c1)OCO2
2. C/C(=N/Nc1c(Cl)cc(Cl)cc1Cl)c1cc(F)ccc1OC(=O)c1ccccc1F
3. Cc1ccc(OCc2nnc(SCC(=O)Nc3cccc4c3OCO4)n2-c2ccccc2)c2c1CCC2
4. COC(=O)CCC(=O)O[C@H]1CCC2(C)C(CCC3C2C(=O)[C@@H](O)C2(C)C3CC3OC4(CCC(C)CO4)[C@@H](C)C32)C1 (stereo partly drawn)

Response line:
[0.976, 1.02, 0.991, 0.996]

* * *

Assignment: determine reported normalized growth for the given compounds.
Experiment: chemical genetic growth profiling, strain panel (AID 1159580);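 also: tested at 20 µM; growth read once vehicle control cultures reached saturation at 30 °C; 1 = growth at the plate median or of vehicle wells; lower values mean less growth of the strain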
Conditions: S. cerevisiae deletion strains, growth OD, locus YJL157C, strain FAR1, hits give low values
About 2,000 (36%) of roughly 5,500 compounds were called active. About 18% were inconclusive and are not listed. Some of the results follow.
Give bare numbers.

INSERT INTO assay_data (compound, measurement_kind, assay_result) VALUES
  ('Cc1nn(Cc2nnc(SCc3cccc(C(F)(F)F)c3)o2)c(C)c1Br', 'normalized growth', 0.965);

Please give normalized growth, item by item, for the list that follows.
1. O=S(=O)(Nc1ccc(Oc2ccc(OC(F)(F)F)cc2)cc1)c1cccc(Cl)c1
2. O=C(CCn1c(=O)oc2ccccc21)Sc1ccc(C(F)(F)F)cc1
3. Cc1ccc(N2C(=O)CSC2c2ccc(Cl)c(Cl)c2)cc1Cl (stereo unspecified)
4. Cc1c(S(=O)(=O)c2ccc(Cl)cc2)csc1C(=O)NNc1cccc(Cl)c1
5. CS(=O)(=O)/C(C#N)=C/c1ccccc1OCc1c(Cl)cccc1Cl

Response line:
[0.946, 0.703, 0.961, 0.886, 0.95]

* * *

Assay: chemical genetic growth profiling, strain panel (AID 1159580);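 also: tested at 20 µM; growth read once vehicle control cultures reached saturation at 30 °C; 1 = growth at the plate median or of vehicle wells; lower values mean less growth of the strain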
Conditions: S. cerevisiae deletion strains, growth OD, locus YML016C, strain PPZ1, hits give low values
Among all 5,500 compounds or so, about 2,000 (36%) were called active. Not shown: some 18% with an inconclusive outcome. The list shows a part of the results.
Measurement kind: normalized growth

List the reported normalized growth of each compound below.
1. CC(=O)N=c1sc(S(N)(=O)=O)nn1C
2. CC1(C)C(O)CC(O)C2(C)C1CC(O)C1(C)C2CCC2(C)C(c3ccoc3)OC(=O)C3OC321 (stereo not given)
3. CC(=O)O[C@H]1C[C@@H](OC(C)=O)C(C)(C)C2CC(=O)[C@]3(C)C(CC[C@@]4(C)[C@H](c5ccoc5)OC(=O)[C@H]5O[C@]543)[C@]21C (stereo not given in full)
4. O=c1cc(-c2cc(O)c(O)c(O)c2)oc2cc(O)cc(O)c12
5. OC1=Cc2c(O)cc(O)cc2OC1(O)c1ccc(O)c(O)c1 (stereo not given)

Response line:
1. 1.01 (inactive)
2. 1.01 (inactive)
3. 0.996 (inactive)
4. 0.994 (inactive)
5. 0.972 (inactive)

* * *

Assay: chemical genetic growth profiling, strain panel (AID 1159580);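 also: tested at 20 µM; growth read once vehicle control cultures reached saturation at 30 °C; 1 = growth at the plate median or of vehicle wells; lower values mean less growth of the strain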
Conditions: S. cerevisiae deletion strains, growth OD, locus YHR082C, strain KSP1, hits give low values
Screen size: about 5,500 compounds; about 2,000 (36%) were called active. About 18% were inconclusive and are not listed. Some of the results follow.
Record form. Attribute: normalized growth. Fill in for each entry.
Answers are plain numbers.

INSERT INTO measurements (molecule, assay_result) VALUES
  ('O=C(NNc1ccc(Cl)cc1)c1ccc(F)cc1F', 0.762);

Can you give me normalized growth for all of these, one by one?
1. O=C(CCn1c(=O)oc2ccccc21)Sc1ccc(Cl)cc1Cl
2. O=C1/C(=C/c2cccs2)COc2ccccc21
3. CS(=O)(=O)c1sc(C(=O)Sc2ccc(Cl)cc2)c2c1C=CCC2
4. Cc1onc(-c2ccccc2)c1C(=O)Sc1ccc(C(F)(F)F)cn1
5. COc1ccc(CC2CCC(=NOC(=O)c3c(Cl)cccc3Cl)CC2)cc1 (centres undefined)
6. Cc1c(S(=O)(=O)c2ccc(Cl)cc2)csc1C(=O)NNc1cccc(Cl)c1

Response line:
0.281
0.735
0.511
0.256
1.03
0.958

Record normalized growth for all entries; do not skip any.
1. O=S(=O)(Nc1ccc(Oc2ccc(Cl)cc2)cc1)c1ccccc1
2. CC1C/C(=N/Nc2ccc(Br)cc2)c2cc(Cl)ccc2S1 (centres undefined)
3. C/C(=N/Nc1ccccc1)c1cc(Cl)cc(Cl)c1O

Response line:
1. 0.137
2. 0.277
3. 0.731

Hi there! I need normalized growth for each item below, if you can.
1. O=C1CSC(c2ccc(C(F)(F)F)cc2)N1c1ccc(C(F)(F)F)cc1 (centres undefined)
2. S=C(Nc1cc(Cl)c(Cl)cc1Cl)Nc1ccccc1Br

Response line:
0.936
0.822

I have 2 molecules here; please give me normalized growth for each one.
1. O=C(Nc1ccc(Cl)cc1)O/N=C\c1ccn(-c2ccccc2)n1
2. CS(=O)(=O)/C(C#N)=C/c1ccccc1OCc1c(Cl)cccc1Cl

Response line:
1: 0.835; 2: 1.01
